Biological target: Androgen receptor (Homo sapiens) (UniProt P10275)
Assay: Induction of full length AR degradation in human LNCAP cells at 2 to 20 uM after 5 hrs by Western blot analysis
Assay type: cell-based
Active and inactive are the calls of the source. The rule behind the calls is not given here.

| structure-smiles-string | Activity |
| --- | --- |
| O=C1c2ccccc2C(=Cc2cccc(O)c2)c2ccccc21 | Active |
| COc1ccc(C=C2c3ccccc3C(=O)c3ccccc32)c(O)c1 | Active |
| COc1cccc(C=C2c3cccc(Cl)c3C(=O)c3c(Cl)cccc32)c1O | Active |
| COc1ccc(C=C2c3cccc(Cl)c3C(=O)c3c(Cl)cccc32)cc1O | inactive |
| COc1ccc(C=C2c3cccc(Cl)c3C(=O)c3c(Cl)cccc32)c(OC)c1O | inactive |

* * *

Target: Tubulin
Experiment: Inhibition of tubulin polymerization (unknown origin)

| structure-smiles-string | unit-string | IC50 |
| --- | --- | --- |
| O=C1c2ccccc2C(=Cc2cccc(O)c2)c2ccccc21 | µM | 10 |

* * *

Molecular target: Androgen receptor (Homo sapiens)
Test: Inhibition of R1881-induced transcriptional activity of human AR V7 truncated mutant expressed in human PC3 cells harboring pGL3-ARR3tk-NLuc after 24 hrs by luciferase reporter gene assay
Assay type: cell-based
pIC50: −log10 of the molar value.

| structure-smiles-string | qualifier | pIC50 |
| --- | --- | --- |
| COc1cc(C=C2c3cccc(Cl)c3C(=O)c3c(Cl)cccc32)cc(OC)c1O | < | 5.00 |
| COc1cccc(C=C2c3cccc(Cl)c3C(=O)c3c(Cl)cccc32)c1O | = | 5.00 |
| COc1ccc(C=C2c3cccc(Cl)c3C(=O)c3c(Cl)cccc32)c(OC)c1O | = | 5.00 |
| COc1ccc(C=C2c3ccccc3C(=O)c3ccccc32)c(O)c1 | > | 5.00 |
| O=C1c2ccccc2C(=Cc2cccc(O)c2)c2ccccc21 | > | 5.00 |
| COc1ccc(C=C2c3cccc(Cl)c3C(=O)c3c(Cl)cccc32)cc1O | = | 5.00 |

* * *

Target: Androgen receptor (Homo sapiens)
Sequence (P10275 whole entry): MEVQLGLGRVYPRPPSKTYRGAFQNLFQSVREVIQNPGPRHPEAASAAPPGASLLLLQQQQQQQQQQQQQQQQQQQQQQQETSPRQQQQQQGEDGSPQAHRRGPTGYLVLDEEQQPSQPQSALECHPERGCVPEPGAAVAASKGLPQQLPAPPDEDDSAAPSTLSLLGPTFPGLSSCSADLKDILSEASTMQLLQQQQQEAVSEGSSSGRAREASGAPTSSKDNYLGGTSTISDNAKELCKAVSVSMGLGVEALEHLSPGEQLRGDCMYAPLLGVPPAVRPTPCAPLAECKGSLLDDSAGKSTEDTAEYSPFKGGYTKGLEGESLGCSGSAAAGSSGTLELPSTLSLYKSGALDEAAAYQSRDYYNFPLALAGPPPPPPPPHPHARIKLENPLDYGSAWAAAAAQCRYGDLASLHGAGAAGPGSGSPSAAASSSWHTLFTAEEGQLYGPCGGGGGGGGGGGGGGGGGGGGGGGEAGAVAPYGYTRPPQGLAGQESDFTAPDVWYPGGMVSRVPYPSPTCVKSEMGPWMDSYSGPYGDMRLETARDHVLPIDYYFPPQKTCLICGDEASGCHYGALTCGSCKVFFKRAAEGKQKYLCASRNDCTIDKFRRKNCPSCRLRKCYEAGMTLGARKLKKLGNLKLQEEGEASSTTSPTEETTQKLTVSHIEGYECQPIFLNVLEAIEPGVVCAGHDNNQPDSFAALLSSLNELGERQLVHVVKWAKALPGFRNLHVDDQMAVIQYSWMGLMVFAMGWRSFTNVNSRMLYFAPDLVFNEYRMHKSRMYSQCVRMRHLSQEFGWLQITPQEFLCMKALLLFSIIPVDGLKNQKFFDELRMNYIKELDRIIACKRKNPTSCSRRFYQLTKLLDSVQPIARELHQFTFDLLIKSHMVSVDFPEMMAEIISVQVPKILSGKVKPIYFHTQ
Experiment: Inhibition of R1881-induced full length AR transcriptional activity in human LNCAP cells harboring AR2PB-eGFP construct after 72 hrs by fluorescence assay
Type: cell-based
pIC50: −log10 of the molar value.
# pIC50 values compiled below
readout-type: pIC50

| structure-smiles-string | qualifier | result-value |
| --- | --- | --- |
| COc1ccc(C=C2c3cccc(Cl)c3C(=O)c3c(Cl)cccc32)c(OC)c1O | = | 5.95 |
| COc1cccc(C=C2c3cccc(Cl)c3C(=O)c3c(Cl)cccc32)c1O | = | 5.83 |
| COc1ccc(C=C2c3ccccc3C(=O)c3ccccc32)c(O)c1 | = | 6.63 |
| O=C1c2ccccc2C(=Cc2cccc(O)c2)c2ccccc21 | = | 6.50 |
| COc1cc(C=C2c3cccc(Cl)c3C(=O)c3c(Cl)cccc32)cc(OC)c1O | < | 5.00 |

These entries and their values trace back to ChEMBL document CHEMBL4270637.
